This listing pairs compounds with measured IC50.
# Tested System: S. aureus SPase (Staphylococcus aureus)
# Method Description: biochemical
# Run Conditions: IC 50 (nM) S. aureus, 20 μM substrate, 10 minutes preincubation
*1 amine or outer side, *2 acyl side, *3 side chain or, on linkers, in order; H or OH if unused. Where a SMILES comes first, the peptide text is derived from it. [ ]: non-standard residue; d: D form. The star is where a group is joined. boroAla((+)-pinanediol) = C[C@H](N*)B1O[C@@H]2C[C@@H]3C[C@@H](C3(C)C)[C@]2(C)O1; Benzoyl(4-(4-Cl-Ph)) = O=C(c1ccc(-c2ccc(Cl)cc2)cc1)*; X1 = C[C@H](N[*:1])C(=O)C(=O)[*:2]; Decanoyl = CCCCCCCCCC(=O)*; Dab = NCC[C@H](N)C(=O)O; Dap = NC[C@H](N)C(=O)O; NHtBu = CC(C)(C)N*
Report the figure along with its unit, number first.

| Compound | Result |
| --- | --- |
| C[C@H](NC(=O)[C@@H](NC(=O)[C@H](CN)NC(=O)c1ccc(-c2ccc(Cl)cc2)cc1)[C@@H](C)O)C(=O)N[C@@H](CCCCN)C(=O)N[C@@H](C)C(=O)C(=O)NC(C)(C)C [Compound 108] ({Benzoyl(4-(4-Cl-Ph))}-[Dap]TAK[X1]-NHtBu) | 3700 nM |
| CCCCCCCCCC(=O)N[C@@H](CCN)C(=O)N[C@H](C(=O)N[C@@H](C)C(=O)N[C@@H](CCCCN)C(=O)N[C@@H](C)B1O[C@@H]2C[C@@H]3C[C@@H](C3(C)C)[C@]2(C)O1)[C@@H](C)O [Compound 117] (Decanoyl-[Dab]TAK-{boroAla((+)-pinanediol)}) | 150 nM |
| CCCCc1ccc(-c2ccc(C(=O)N[C@@H](CCN)C(=O)N[C@H](C(=O)N[C@@H](C)C(=O)N[C@@H](CCCCN)C(=O)N[C@@H](C)C(=O)C3CO3)[C@@H](C)O)cc2)cc1 (single isomer, unassigned) [Compound 201 P2] | 210 nM |

# IC50 of CCCCc1ccc(-c2ccc(C(=O)N[C@@H](CCN)C(=O)N[C@H](C(=O)N[C@@H](C)C(=O)N[C@@H](CCCCN)C(=O)N[C@@H](C)C(=O)C3(C)CO3)[C@@H](C)O)cc2)cc1 (single isomer, unassigned) [Compound 207 P2] = 1300 nM

* * *

# Tested System: S. aureus SPase (Staphylococcus aureus, UniProt P0A070)
# Sequence (P0A070 whole entry): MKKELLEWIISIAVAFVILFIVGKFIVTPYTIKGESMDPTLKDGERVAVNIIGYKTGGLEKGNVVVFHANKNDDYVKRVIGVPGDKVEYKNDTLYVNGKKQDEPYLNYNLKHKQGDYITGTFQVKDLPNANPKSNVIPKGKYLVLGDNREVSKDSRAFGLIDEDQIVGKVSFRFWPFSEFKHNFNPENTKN
# Method Description: biochemical
# Run Conditions: IC 50 (nM) S. aureus, 20 μM substrate, 10 minutes preincubation
*1 amine or outer side, *2 acyl side, *3 side chain or, on linkers, in order; H or OH if unused. Where a SMILES comes first, the peptide text is derived from it. [ ]: non-standard residue; d: D form. The star is where a group is joined. ξ: configuration not given here. boroAla((+)-pinanediol) = C[C@H](N*)B1O[C@@H]2C[C@@H]3C[C@@H](C3(C)C)[C@]2(C)O1; ξ3Amino2oxobutanoyl = CC(N[*:1])C(=O)C(=O)[*:2]; X11 = CCCCc1ccc(-c2nc(C(=O)*)cs2)cc1; Thr(3ξ) = CC(O)[C@H](N)C(=O)O; Decanoyl = CCCCCCCCCC(=O)*; Dab = NCC[C@H](N)C(=O)O
This listing pairs compounds with measured IC50.
Provide the reading as a plain figure in nM.

Field: example entries. Status: answers known.
| Compound | Unit Descriptor | IC50 |
| --- | --- | --- |
| CCCCc1ccc(-c2nc(C(=O)N[C@@H](CCN)C(=O)N[C@H](C(=O)N[C@@H](C)C(=O)N[C@@H](CCCCN)C(=O)N[C@@H](C)B3O[C@@H]4C[C@@H]5C[C@@H](C5(C)C)[C@]4(C)O3)[C@@H](C)O)cs2)cc1 [Compound 121] (X11-[Dab]TAK-{boroAla((+)-pinanediol)}) | nM | 280 |
| CCCCc1ccc(-c2ccc(C(=O)N[C@@H](CCN)C(=O)N[C@H](C(=O)N[C@@H](C)C(=O)N[C@@H](CCCCN)C(=O)N[C@@H](C)C(=O)C3CO3)[C@@H](C)O)cc2)cc1 (single isomer, unassigned) [Compound 201 P1] | nM | 10 |

# lookup: CCCCCCCCCC(=O)N[C@@H](CCCCN)C(=O)N[C@H](C(=O)N[C@@H](C)C(=O)N[C@@H](CC(N)=O)C(=O)NC(C)C(=O)C(=O)NC)C(C)O (stereo partly shown) [Compound 107] (Decanoyl-K[Thr(3ξ)]AN[ξ3Amino2oxobutanoyl]-NHMe) on S. aureus SPase (Staphylococcus aureus, UniProt P0A070), IC50 = 360

Measured values drawn from patent US20160194358A1 for this set.
